# target: PDGF-BB (platelet-derived growth factor BB) (Homo sapiens) (UniProt P01127)
# Sequence (P01127 82-190): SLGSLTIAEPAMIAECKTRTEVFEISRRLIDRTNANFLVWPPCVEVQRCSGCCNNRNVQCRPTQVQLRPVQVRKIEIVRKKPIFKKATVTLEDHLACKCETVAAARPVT
# protocol-details: filter
# condition-notes: NapdU at P; 2'-OMe 7,16,21
pKd: −log10 of the molar value.
reported-metric: pKd

• CGACAGCATGTATGCACATCT [5169-4_113] = 10.92

---

# target: PDGF-BB (platelet-derived growth factor BB) (Homo sapiens) (UniProt P01127)
# protocol-details: filter
# condition-notes: BndU; NapdU 16; 2'-OMe 3,7,12,13,18,19,21,24; PS 9,15,16,17; Heg 5; C3 11
pKd: −log10 of the molar value.
reported-metric: pKd

- TTACGTTACCGCGTTTATAGCG [4149-8_453]: 11.70
